remaining at 1 h, 1 µM listing for selected compounds.
- Measurement protocol: Phase I metabolic stability in mouse liver microsomes
- Format: in vitro ADME
- Setup conditions: mouse, liver microsomes, pH 7.4, 1 h, without NADPH, 1 µM compound, 0.2 mg/mL microsomes; read-out: % remaining in mouse liver microsomes, absence of NADPH
The reply should be a number in %, with the unit left off.

>  <Compound>
CCCCCNC(=O)CCNC(=O)[C@H](O)C(C)(C)CO [compound 1, N-pentylpantothenamide, reference compound]

>  <Measured number>
93

$$$$

Here is another compound to look at.
Asked: I have this compound here, CCCCCC(=O)NCCNC(=O)[C@H](O)C(C)(C)CO , and I need its recorded remaining at 1 h, 1 µM.
Given back: 87

* * *

remaining at 1 h, 1 µM listing for selected compounds.
- Measurement protocol: Phase I metabolic stability in mouse liver microsomes
- Type: in vitro ADME
- Setup conditions: mouse, liver microsomes, pH 7.4, 1 h, with NADPH, 1 µM compound, 0.2 mg/mL microsomes; read-out: % remaining in mouse liver microsomes, presence of NADPH
- Procedure: Stability studies were conducted in mouse liver microsomes, mouse liver tissue homogenate, and CD1 mouse plasma as previously described with minor modifications ([54][–][56]). […] Compound disappearance over time was monitored using a Dionex ultra-high-performance liquid chromatography system consisting of an analytical pump and an autosampler coupled with Q Exactive Focus orbitrap mass spectrometer (Thermo Fisher Scientific Inc., Waltham MA). […]
The reply should be a number in %, with the unit left off.

>  <Compound>
CCCCCC(=O)NCCNC(=O)[C@H](O)C(C)(C)CO

>  <Units of measure>
%

>  <remaining at 1 h, 1 µM>
87

$$$$

Asked: I have this compound here, CCCCCNC(=O)CCNC(=O)[C@H](O)C(C)(C)CO [compound 1, N-pentylpantothenamide, reference compound] , and I need its recorded remaining at 1 h, 1 µM.
Given back: 90

* * *

- Measurement protocol: Stability in mouse liver homogenate
- Type: in vitro ADME
- Setup conditions: mouse, liver tissue homogenate (10% wt/vol); 1 h, 10% wt/vol homogenate, 10 µM compound, 37°C
remaining at 1 h, 10 µM listing for selected compounds.
The reply should be a number in %, with the unit left off.

>  <Compound>
CCCCCNC(=O)CCNC(=O)[C@H](O)C(C)(C)CO [compound 1, N-pentylpantothenamide, reference compound]

>  <Units of measure>
%

>  <remaining at 1 h, 10 µM>
17

$$$$

Here is another compound to look at.
Asked: I have this compound here, CCCCCNC(=O)CNC(=O)[C@H](O)C(C)(C)CO [compound 6, N5-α-pantothenamide] , and I need its recorded remaining at 1 h, 10 µM.
Given back: 96

* * *

- Measurement protocol: Stability in mouse plasma
- Format: in vitro ADME
- Setup conditions: CD1, mouse, plasma; 1 h, 10 µM compound, 37°C
Measured parameter: remaining at 1 h, 10 µM (%)
The reply should be a number in %, with the unit left off.

Asked: I have this compound here, CCCCCC(=O)NCCNC(=O)[C@H](O)C(C)(C)CO , and I need its recorded remaining at 1 h, 10 µM.
Given back: 93

* * *

- System: UPEC strain CFT073
- Measurement protocol: Antimicrobial susceptibility assay, UPEC grown in MOPS-glycerol
- Type: cell-based, Escherichia coli
- Setup conditions: Escherichia coli; UPEC CFT073 grown in MOPS-glycerol, 24 h; ± standard error
Measured parameter: MIC

>  <Chemical string>
CCCCCCCN(C)C(=O)CCNC(=O)[C@H](O)C(C)(C)CO

>  <Target system>
UPEC strain CFT073

>  <MIC>
> 2000 µM

$$$$
>  <Chemical string>
CCCCCN(C)C(=O)CCNC(=O)[C@H](O)C(C)(C)CO

>  <Target system>
UPEC strain CFT073

>  <MIC>
> 2000 µM

$$$$

Here is another compound to look at.
Asked: I have this compound here, CCCCNC(=O)CCNC(=O)[C@H](O)C(C)(C)CO , and I need its recorded MIC.
Given back: 4 µM

Data origin: paper PMC12323621
